- Tested on: MDR1-MDCK cell monolayers
- Procedure Summary: MDCK-MDR1 permeability assay for blood-brain-barrier penetration potential (Papp, efflux ratio)
- Type: in vitro ADME
- Settings: 5 μM, basolateral to apical, 120 minutes, pH 7.4
Measured Parameter: MDCK-MDR1: % Recov B-A (%)
Number in %, nothing else.

[Q] Which MDCK-MDR1: % Recov B-A is reported for this compound? CN(c1cnc(-c2ccc(-c3cnn(C)c3)cc2O)nn1)[C@@H]1C[C@H]2CC[C@H](N2)[C@@H]1F (single isomer, unassigned)
[A] 72

[Q] Which MDCK-MDR1: % Recov B-A is reported for this compound? Cn1cc(-c2ccc(-c3ncc(O[C@@H]4C[C@H]5CCC[C@H](N5)[C@@H]4F)nn3)c(O)c2)cn1 (single isomer, unassigned)
[A] 79

[Q] Which MDCK-MDR1: % Recov B-A is reported for this compound? CN(c1cnc(-c2ccc(-c3ccn(C)c(=O)c3)cc2O)nn1)[C@H]1C[C@@H]2CC[C@@H](N2)[C@H]1F (single isomer, unassigned)
[A] 84

# next compound below
[Q] Which MDCK-MDR1: % Recov B-A is reported for this compound? CN(C)C(=O)c1cc2cc(O)c(-c3ncc(N(C)[C@@H]4C[C@H]5CC[C@H](N5)[C@@H]4F)nn3)cc2o1 (single isomer, unassigned)
[A] 96
